# Octet response annotations
- tested target: T1, FA peptide (Octet assay of PS557 variants)
- T1 construct: Peptide coated on the Octet sensor
- experiment: Octet (BLI), peptide on sensor, response after 200 s association
test readout: Octet response (nm)

binder	quantity unit	reported
PS557 (other, Natural ClpS parent protein; also called WT; wild-type protein) MPTAASATESAIEDTPAPARPEVDGRTKPKRQPRYHVVLWNDDDHTYQYVVVMLQSLFGHPPERGYRLAKEVDTQGRVIVLTTTREHAELKRDQIHAFGYDRLLARSKGSMKASIEAEE	nm	0.634
PS961 (designed binder, Variant of PS557; also called N41D, V72M, Q55R, E63S, L68M, Y100R) MPTAASATESAIEDTPAPARPEVDGRTKPKRQPRYHVVLWDDDDHTYQYVVVMLRSLFGHPPSRGYRMAKEMDTQGRVIVLTTTREHAELKRDQIHAFGRDRLLARSKGSMKASIEAEE	nm	2.05
PS963 (designed binder, Variant of PS557) MPTAASATESAIEDTPAPARPEVDGRTKPKRQPRYHVVLWDDDDHTYQYVVVMLRSLFGHPPARGYRLAKEMDTQGRVIVLTTTREHAELKRDQIHAFGRDRLLARSKGSMKASIEAEE	nm	2.25
PS962 (designed binder, Variant of PS557) MPTAASATESAIEDTPAPARPEVDGRTKPKRQPRYHVVLWDDDDHTYQYVVVMLRSLFGHPYARGYRLAKEMDTQGRVIVLTTTREHAELKRDQIHAFGRDRLLARSKGSMKASIEAEE	nm	2.57
PS960 (designed binder, Variant of PS557) MPTAASATESAIEDTPAPARPEVDGRTKPKRQPRYHVVLWDDDDHTYQYVVVMLRSLFGIPPERGYRLAKEMDTQGRVIVLTTTREHAELKRDQIHAFGYDRLLARSKGSMKASIEAEE	nm	0.0851
